Test system: RXF 393
TEST METHOD NOTES: NCI tumour cell line growth inhibition, 48 h
Active and inactive are the calls of the source. No stated cut-off is given here; in the data, active = GI50 up to about 1.1 µM and inactive = higher.
Just give me one of these, please: Y (active), N (inactive)

Query: Status in this test for O=c1c(O)c(-c2ccccc2)n(O)c2ccc(Cl)cc12 ?
Reply: N

Query: Status in this test for Cc1cc(S(=O)(=O)/N=C(\NN)NNc2cccc(C(F)(F)F)n2)c(S)cc1Cl ?
Reply: N

Query: Status in this test for COc1c(Cl)cc(Cl)cc1S(=O)O ?
Reply: N

Query: Status in this test for CC(=O)O[C@@H]1C2=C(C3=C([O-])C4=CC=CC(=O)C4C(=O)C3=C2[N+]#N)[C@H](OC(C)=O)[C@@H](OC(C)=O)[C@]1(C)O (stereo not given in full) ?
Reply: Y

Query: Status in this test for Brc1ccc(N2C[N+](c3ccc(Br)cc3)=NC(c3ccccc3)=N2)cc1.[O-][Cl+3]([O-])([O-])[O-] ?
Reply: N

Query: Status in this test for COc1ccc2c(c1)OC1c3ccccc3OCC21 (stereo not given) ?
Reply: N

Query: Status in this test for COc1cccc(/C=N/[N+](C)(C)C)c1O ?
Reply: N

Query: Status in this test for COC(=O)c1c(-c2cc(OC)c(OC)c(OC)c2)oc2ccccc2c1=O ?
Reply: N

Query: Status in this test for COc1cc2c(c(OC)c1OC)-c1ccc(SC)c(=O)cc1C(NC=O)CC2 (stereo not given) ?
Reply: Y

Query: Status in this test for O=P(CCOc1ccccc1OCCP(=O)(c1ccccc1)c1ccc2c(c1)OCCOCCOCCOCCO2)(c1ccccc1)c1ccc2c(c1)OCCOCCOCCOCCO2 (stereo not given) ?
Reply: N

Query: Status in this test for CCOC(=O)NC(=S)NC(C)c1ccccc1 (stereo not given) ?
Reply: N

Query: Status in this test for Cc1cc(NCc2ccccc2)c2ccccc2[n+]1CCCCCCCCCC[n+]1c(C)cc(NCc2ccccc2)c2ccccc21.[O-][Cl+3]([O-])([O-])[O-].[O-][Cl+3]([O-])([O-])[O-] ?
Reply: N

Query: Status in this test for O=C(CC(O)(C(F)(F)F)C(F)(F)F)c1cc(CC(=O)C(O)(C(F)(F)F)C(F)(F)F)cc(CC(=O)C(O)(C(F)(F)F)C(F)(F)F)c1 ?
Reply: N

Query: Status in this test for CCOC(=N)CC(=O)Nc1ccccc1CC ?
Reply: N

Query: Status in this test for Cc1ccc(NC(=O)CC2C(=O)Nc3ccccc3S2(=O)=O)cc1C (stereo not given) ?
Reply: N

Query: Status in this test for CC(C)NCC(O)COC(=O)c1cccs1 (stereo not given) ?
Reply: N

Query: Status in this test for Cc1cc2nc3n(c2cc1C)C(c1c(F)cccc1F)SC3 (stereo not given) ?
Reply: N

Query: Status in this test for C=CCc1cccc2cc(C(N)=O)c(=N)oc12 ?
Reply: N

Query: Status in this test for Cc1ccc(NC(=O)/C(=N/NC(=O)C[N+](C)(C)C)c2nc3ccccc3nc2O)cc1 ?
Reply: N

Query: Status in this test for Cc1cc(O)c(C(c2cccnc2)c2c(O)cc(C)[nH]c2=O)c(=O)[nH]1 ?
Reply: N

Query: Status in this test for CC(c1ccc2c(c1)CCC1C2CC2OC23CC=CC(=O)[C@]13C)C1C[C@]2(C)O[C@]2(C)[C@H](O)O1 (stereo not given in full) ?
Reply: N

Query: Status in this test for COc1cccc(CC(C)N)c1 (stereo not given) ?
Reply: N

Query: Status in this test for CN(C)c1n/c(=N/Cc2cccs2)ss1 ?
Reply: N

Query: Status in this test for CCCC(CC)c1c(O)c(O)c(C(CC)CCC)c(C(CC)CCC)c1C(CC)CCC (stereo not given) ?
Reply: N

Query: Status in this test for O=c1oc2ccccc2cc1-c1csc(Nc2ccc(F)cc2)n1 ?
Reply: N

Query: Status in this test for O=C(/C=C/c1ccc(Cl)cc1)c1ccccc(=O)c1O ?
Reply: N

Query: Status in this test for CN(O)C(=O)CCCC(=O)NCC(C)(C)CNC(=O)CCCC(=O)N(C)O ?
Reply: N

Query: Status in this test for Cc1cc(Cc2cc(Cc3cc(C)cc(C(C)(C)C)c3O)c(C)cc2C)c(O)c(C(C)(C)C)c1 ?
Reply: N

Query: Status in this test for CC(=O)OCC1OC(Sc2ccccn2)C=CC1OC(C)=O (stereo not given) ?
Reply: N

Query: Status in this test for O=C(O)Cc1cccc2c1OC(c1ccccc1)C(C(=O)c1ccccc1)C2=O (stereo not given) ?
Reply: N

Query: Status in this test for COC(=O)c1c(O)ccc2c1c1c(n2Cc2ccccc2)C(=O)c2ccccc2C1 ?
Reply: N

Query: Status in this test for COc1ccc(NC(=O)CC(=O)NNC(Sc2ccccc2)c2cc(/N=N/c3ccc(Br)cc3)ccc2O)cc1 (stereo not given) ?
Reply: N

Query: Status in this test for CS(=O)(=O)c1ccc(-c2cc(-c3ccc(S(C)(=O)=O)cc3)[n+](-c3cc(-c4ccccc4)c([O-])c(-c4ccccc4)c3)c(-c3ccc(S(C)(=O)=O)cc3)c2)cc1 ?
Reply: N

Query: Status in this test for O=CNNC(=O)Nc1ccc(Cl)cc1 ?
Reply: N

Query: Status in this test for O=NN(CCCl)C(=O)N[C@H]1CC[C@H](C(=O)O)CC1 ?
Reply: N

Query: Status in this test for O=c1c(NO)c([N+](=O)[O-])cnn1-c1ccccc1 ?
Reply: N

Query: Status in this test for N#Cc1c(N)nc2c(c1-c1ccc(Br)cc1)CSc1ccccc1-2 ?
Reply: N

Query: Status in this test for CC1(C)CCCCC1/C=C/C(CC(O)(C(F)(F)F)C(F)(F)F)=N\Nc1ccc([N+](=O)[O-])cc1[N+](=O)[O-] (stereo not given) ?
Reply: Y

Query: Status in this test for CCOC(=O)c1c(-c2ccc(OC)cc2)c(C#N)c(=S)n(C2OC(CO)C(O)C(O)C2O)c1C (stereo not given) ?
Reply: N

Query: Status in this test for CN(C)CCn1cnc2ncccc2c1=O ?
Reply: N
